molecular target: human DGKα (Homo sapiens); construct: TVMV protease cleavage site (C); Hexa-His (C); made in house; host or cells: Sf9 insect cells (baculovirus, Bac-to-Bac); test: DGKα LIPGLO assay (extruded liposome substrate), in vitro DGK inhibition; type: biochemical; settings: DGKα liposome (LIPGLO) assay; read-out: DGKa LIPGLO IC50
Sequence (P23743 with tags, fused parts or gaps): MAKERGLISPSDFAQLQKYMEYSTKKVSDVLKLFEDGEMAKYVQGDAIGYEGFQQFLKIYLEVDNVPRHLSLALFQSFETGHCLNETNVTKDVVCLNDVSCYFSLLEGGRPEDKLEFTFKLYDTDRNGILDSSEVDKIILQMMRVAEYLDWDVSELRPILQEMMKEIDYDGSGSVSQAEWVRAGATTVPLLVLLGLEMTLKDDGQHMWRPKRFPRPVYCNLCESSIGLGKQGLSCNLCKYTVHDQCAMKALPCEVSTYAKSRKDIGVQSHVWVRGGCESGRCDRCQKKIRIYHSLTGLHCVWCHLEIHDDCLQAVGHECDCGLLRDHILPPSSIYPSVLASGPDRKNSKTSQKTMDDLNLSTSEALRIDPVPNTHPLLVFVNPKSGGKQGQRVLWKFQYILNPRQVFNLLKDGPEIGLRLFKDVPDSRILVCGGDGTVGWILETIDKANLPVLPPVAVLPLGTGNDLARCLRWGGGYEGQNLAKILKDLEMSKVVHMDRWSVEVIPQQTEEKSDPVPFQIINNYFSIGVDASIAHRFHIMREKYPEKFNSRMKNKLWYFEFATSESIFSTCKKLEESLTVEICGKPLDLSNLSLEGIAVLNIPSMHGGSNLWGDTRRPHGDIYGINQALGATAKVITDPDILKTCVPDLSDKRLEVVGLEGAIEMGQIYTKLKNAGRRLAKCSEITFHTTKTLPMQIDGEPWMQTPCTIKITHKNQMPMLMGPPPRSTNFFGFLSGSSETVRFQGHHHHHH
Note to self: class labels come from recorded IC50, ranges listed here: zone 1 (below 200 nM), zone 2 (200 nM to below 3000 nM), zone 3 (3000 nM or more)

Worked examples follow.
Using the reported IC50, which band applies to COC(=O)c1ccc(C(C)N2C[C@H](C)N(c3c(C#N)c(=O)n(C)c4ccc(C#N)nc34)C[C@H]2C)cc1 (single isomer, unassigned) [Example 794] ?
zone 3

Can you handle C[C@@H]1CN(c2cc(=O)n(C)c3ccc(C#N)nc23)[C@@H](C)CN1C(c1ccc(F)cc1)c1nc(C2CC2)no1 (single isomer, unassigned) [Example 736] next?
zone 1

Now consider C[C@@H]1CN(c2cc(=O)n(C)c3ccc(C#N)nc23)[C@@H](C)CN1C(c1ccc(Br)cc1)c1nc(C2CC2)no1 (stereo partly drawn) [Example 761] .
zone 1

Next:
Any idea which band C[C@@H]1CN(c2c(C#N)c(=O)n(C)c3ccc(C#N)nc23)CCN1C(c1ccc(F)cc1)c1ccc(F)cn1 (stereo partly drawn) [Example 902] is in?
zone 2

What do we get for CC(c1ccc(C(=O)O)cc1)N1C[C@H](C)N(c2c(C#N)c(=O)n(C)c3ccc(C#N)nc23)C[C@H]1C (stereo partly drawn) [Example 786] ?
zone 3

Repeat for the following molecule: C[C@@H]1CN(c2cc(=O)n(C)c3ccc(C#N)nc23)[C@@H](C)CN1C(c1ccc(F)cc1)c1nnnn1C(C)(C)C (single isomer, unassigned) [Example 770]
zone 3
